# ASSAY NAME: physchem
# CONDITION INFO: water
OBSERVABLE: solubility (µg/mL)
Write the value in µg/mL as a bare number.

GIVEN SMILES	UNIT ANNOTATION	RECORDED VALUE
N[C@@H](Cc1ccc(N(CCCl)CCCl)cc1)C(=O)O	µg/mL	1260

Kindly consider the entry below.
Incoming: Entry `O=C(O)CCCc1ccc(N(CCCl)CCCl)cc1` has what solubility?
Outgoing: 410

###

# ASSAY NAME: physchem
# CONDITION INFO: 3% aqueous hpcd
OBSERVABLE: solubility (µg/mL)
Reply with just the number (in µg/mL).

Incoming: Entry `N[C@@H](Cc1ccc(N(CCCl)CCCl)cc1)C(=O)O` : reported solubility = ?
Outgoing: 6240
